Consider the following compounds; for each one, report its Bliss interaction score.
Test system: S. aureus Newman
Assay: Bliss interaction score (quartile over a dose matrix) (fitness difference); higher = more antagonism (negative = synergy)
Numbers only.

Example entries and their recorded answers appear below.
compound	Bliss interaction score
C[n+]1ccc(-c2cc[n+](C)cc2)cc1 [Paraquat] + CN(C)c1cc(NC(=O)CNC(C)(C)C)c(O)c2c1C[C@H]1C[C@H]3[C@H](N(C)C)C(O)=C(C(N)=O)C(=O)[C@@]3(O)C(O)=C1C2=O [Tigecycline]	0.0431
O=C(O)[C@H]1/C(=C/CO)O[C@@H]2CC(=O)N21 [Clavulanic] + O=C1CN(/N=C/c2ccc([N+](=O)[O-])o2)C(=O)N1 [Nitrofurantoin]	0.102
O=C(O)[C@H]1/C(=C/CO)O[C@@H]2CC(=O)N21 [Clavulanic] + CCN(CC)CCOC(=O)c1ccc(N)cc1 [Procaine]	-0.0729

State the recorded Bliss interaction score for every item in the following list.
1. Cc1cc(NS(=O)(=O)c2ccc(N)cc2)no1 [Sulfamethoxazol] + CN[C@H](CC(C)C)C(=O)N[C@H]1C(=O)N[C@@H](CC(N)=O)C(=O)N[C@H]2C(=O)N[C@H]3C(=O)N[C@H](C(=O)N[C@H](C(=O)O)c4cc(O)cc(O)c4-c4cc3ccc4O)[C@H](O)c3ccc(c(Cl)c3)Oc3cc2cc(c3O[C@@H]2O[C@H](CO)[C@@H](O)[C@H](O)[C@H]2O[C@H]2C[C@](C)(N)[C@H](O)[C@H](C)O2)Oc2ccc(cc2Cl)[C@H]1O [Vancomycin]
2. CC[C@H]1OC(=O)[C@H](C)C(=O)[C@H](C)[C@@H](O[C@@H]2O[C@H](C)C[C@H](N(C)C)[C@H]2O)[C@](C)(OC)C[C@@H](C)C(=O)[C@H](C)[C@H]2N(CCCCn3cnc(-c4cccnc4)c3)C(=O)O[C@]12C [Telithromycin] + CC1=C\[C@@H](O)CC(=O)Cc2nc(co2)C(=O)N2CCC=C2C(=O)O[C@H](C(C)C)[C@H](C)/C=C/C(=O)NC\C=C\1 [Virginiamycin M1]
3. Cc1onc(-c2ccccc2)c1C(=O)N[C@@H]1C(=O)N2[C@@H]1SC(C)(C)[C@@H]2C(=O)O [Oxacillin] + CC[C@H]1OC(=O)[C@H](C)C(=O)[C@H](C)[C@@H](O[C@@H]2O[C@H](C)C[C@H](N(C)C)[C@H]2O)[C@](C)(OC)C[C@@H](C)C(=O)[C@H](C)[C@H]2N(CCCCn3cnc(-c4cccnc4)c3)C(=O)O[C@]12C [Telithromycin]

Result ::
1: 0.0422; 2: -0.0314; 3: 0.0304

Query :: Query (compound): Cc1onc(-c2ccccc2)c1C(=O)N[C@@H]1C(=O)N2[C@@H]1SC(C)(C)[C@@H]2C(=O)O [Oxacillin] + COc1ccc(C[C@H](N)C(=O)N[C@H]2[C@@H](O)[C@H](n3cnc4c(N(C)C)ncnc43)O[C@@H]2CO)cc1 [Puromycin] ; field requested: Bliss interaction score
Result :: 0.0763

* * *

Tested on: S. aureus DSM 20231
Assay: Bliss interaction score (quartile over a dose matrix) (fitness difference); higher = more antagonism (negative = synergy)
Conditions: main component drawn
Consider the following compounds; for each one, report its Bliss interaction score.
One number for each entry.

compound	target system	Bliss interaction score
CNC(C)C1CCC(N)C(OC2C(N)CC(N)C(OC3OCC(C)(O)C(NC)C3O)C2O)O1 (configuration not stated) [Gentamicin] + C/C(=C\C(=O)OCCCCCCCCC(=O)O)C[C@@H]1OC[C@H](C[C@@H]2O[C@H]2[C@@H](C)[C@H](C)O)[C@@H](O)[C@H]1O [Pseudomonic acid]	S. aureus DSM 20231	0.0111

Then there is this compound:
Query :: Query (compound): CNC(C)C1CCC(N)C(OC2C(N)CC(N)C(OC3OCC(C)(O)C(NC)C3O)C2O)O1 (configuration not stated) [Gentamicin] + CCC[C@@H]1C[C@@H](C(=O)N[C@@H]([C@H]2O[C@H](SC)[C@H](O)[C@@H](O)[C@H]2O)[C@@H](C)O)N(C)C1 [Lincomycin] ; field requested: Bliss interaction score
Result :: 0.106

* * *

Test system: B. subtilis 168
Assay: Bliss interaction score (quartile over a dose matrix) (fitness difference); higher = more antagonism (negative = synergy)
Kind request: treat 0.06 as inclusive, so Bliss interaction score at 0.06 or higher is criterion met, anything lower is criterion not met.

compound	label class
Clc1ccc(COC(Cn2ccnc2)c2ccc(Cl)cc2Cl)c(Cl)c1 (stereo not given) [Miconazole] + CCN(CC)CCOC(=O)c1ccc(N)cc1 [Procaine]	criterion met
Cc1onc(-c2ccccc2)c1C(=O)N[C@@H]1C(=O)N2[C@@H]1SC(C)(C)[C@@H]2C(=O)O [Oxacillin] + CN1C2=CC=CC=C2N=C3C1=CC=CC3=O [Pyocyanin]	criterion not met
O=C(O)[C@H]1/C(=C/CO)O[C@@H]2CC(=O)N21 [Clavulanic] + Clc1ccc(COC(Cn2ccnc2)c2ccc(Cl)cc2Cl)c(Cl)c1 [Miconazole]	criterion met
O=C(O)[C@H]1/C(=C/CO)O[C@@H]2CC(=O)N21 [Clavulanic] + CC1=C\[C@@H](O)CC(=O)Cc2nc(co2)C(=O)N2CCC=C2C(=O)O[C@H](C(C)C)[C@H](C)/C=C/C(=O)NC\C=C\1 [Virginiamycin M1]	criterion not met

--- query ---
Query :: hey, is Bliss interaction score for this one >= 0.06? Cn1c2cccc(=O)c-2nc2ccccc21 [Pyocyanin] + Cn1nnc(-c2ccc(-c3ccc(N4C[C@H](CO)OC4=O)cc3F)cn2)n1 [Tedizolid]
Result :: criterion not met

* * *

Tested on: S. pneumoniae D39V
Test: Bliss interaction score (quartile over a dose matrix) (fitness difference); higher = more antagonism (negative = synergy)
test readout: Bliss interaction score
Numbers only.

Example entries and their recorded answers appear below.
compound	measured value
O=C(O)[C@H]1/C(=C/CO)O[C@@H]2CC(=O)N21 [Clavulanic] + N[C@@H]1CONC1=O [CycloserineD]	-0.0906
CC1=C(C(=O)O)N2C(=O)[C@@H](NC(=O)[C@H](N)c3ccccc3)[C@H]2SC1 [Cephalexin] + CN[C@@H]1[C@H](O[C@H]2[C@H](O[C@H]3[C@H](O)[C@@H](O)[C@H](N=C(N)N)[C@@H](O)[C@@H]3N=C(N)N)O[C@@H](C)[C@]2(O)C=O)O[C@@H](CO)[C@H](O)[C@H]1O [Streptomycin]	-0.153

State the recorded Bliss interaction score for every item in the following list.
1. CC[C@H]1OC(=O)[C@H](C)[C@@H](O[C@H]2C[C@@](C)(OC)[C@@H](O)[C@H](C)O2)[C@H](C)[C@@H](O[C@@H]2O[C@H](C)C[C@H](N(C)C)[C@H]2O)[C@](C)(O)C[C@@H](C)CN(C)[C@H](C)[C@@H](O)[C@]1(C)O [Azithromycin] + CO/N=C(\C(=O)N[C@@H]1C(=O)N2C(C(=O)O)=C(COC(N)=O)CS[C@H]12)c1ccco1 [Cefuroxime]
2. O=C(O)[C@H]1/C(=C/CO)O[C@@H]2CC(=O)N21 [Clavulanic] + CN[C@H](CC(C)C)C(=O)N[C@H]1C(=O)N[C@@H](CC(N)=O)C(=O)N[C@H]2C(=O)N[C@H]3C(=O)N[C@H](C(=O)N[C@H](C(=O)O)c4cc(O)cc(O)c4-c4cc3ccc4O)[C@H](O[C@H]3C[C@](C)(N)[C@@H](O)[C@H](C)O3)c3ccc(c(Cl)c3)Oc3cc2cc(c3O[C@@H]2O[C@H](CO)[C@@H](O)[C@H](O)[C@H]2O[C@H]2C[C@](C)(NCc3ccc(-c4ccc(Cl)cc4)cc3)[C@@H](O)[C@H](C)O2)Oc2ccc(cc2Cl)[C@H]1O [Oritavancin]
3. CC1=C(C(=O)O)N2C(=O)[C@@H](NC(=O)[C@H](N)c3ccccc3)[C@H]2SC1 [Cephalexin] + CC1(C)S[C@@H]2[C@H](NC(=O)Cc3ccccc3)C(=O)N2[C@H]1C(=O)O [PenicillinG]
4. Cn1c2cccc(=O)c-2nc2ccccc21 [Pyocyanin] + CN(C)c1cc(NC(=O)CNC(C)(C)C)c(O)c2c1C[C@H]1C[C@H]3[C@H](N(C)C)C(O)=C(C(N)=O)C(=O)[C@@]3(O)C(O)=C1C2=O [Tigecycline]

Result ::
0.0571
0.0545
-0.199
0.0539

* * *

System: S. pneumoniae D39V
Experiment: fitness (endpoint OD595 vs no drug) (fraction); higher = more growth
Conditions: first compound 2 µg/mL; partner 0.125 µg/mL
Consider the following compounds; for each one, report its fitness.
Numbers only.

Example entries and their recorded answers appear below.
compound	measured value
Cc1cc(NS(=O)(=O)c2ccc(N)cc2)no1 [Sulfamethoxazol] + Cn1nnc(-c2ccc(-c3ccc(N4C[C@H](CO)OC4=O)cc3F)cn2)n1 [Tedizolid]	0.781
CC1=C(C(=O)O)N2C(=O)[C@@H](NC(=O)[C@H](N)c3ccccc3)[C@H]2SC1 [Cephalexin] + Cn1nnc(-c2ccc(-c3ccc(N4C[C@H](CO)OC4=O)cc3F)cn2)n1 [Tedizolid]	0.529
CC1=C(C(=O)O)N2C(=O)[C@@H](NC(=O)[C@H](N)c3ccccc3)[C@H]2SC1 [Cephalexin] + CN[C@H](CC(C)C)C(=O)N[C@H]1C(=O)N[C@@H](CC(N)=O)C(=O)N[C@H]2C(=O)N[C@H]3C(=O)N[C@H](C(=O)N[C@H](C(=O)O)c4cc(O)cc(O)c4-c4cc3ccc4O)[C@H](O)c3ccc(c(Cl)c3)Oc3cc2cc(c3O[C@@H]2O[C@H](CO)[C@@H](O)[C@H](O)[C@H]2O[C@H]2C[C@](C)(N)[C@H](O)[C@H](C)O2)Oc2ccc(cc2Cl)[C@H]1O [Vancomycin]	0.0467

Then there is this compound:
Query :: Value wanted: fitness (S. pneumoniae D39V) of entry O=C(O)[C@H]1/C(=C/CO)O[C@@H]2CC(=O)N21 [Clavulanic acid] + COc1c(N2C[C@@H]3CCCN[C@@H]3C2)c(F)cc2c(=O)c(C(=O)O)cn(C3CC3)c12 [Moxifloxacin]
Result :: 0.0371
